Hello, the source for this data is the RNAGym collection of RNA variant scans (doi:10.1073/pnas.2313332121), in case you need it.

B1: TPR t1 (parent)
chain: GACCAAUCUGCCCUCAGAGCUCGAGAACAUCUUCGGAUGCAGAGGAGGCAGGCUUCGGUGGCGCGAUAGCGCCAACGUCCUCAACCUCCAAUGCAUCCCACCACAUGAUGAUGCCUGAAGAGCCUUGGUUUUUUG

Variants of: B1
Experiment: polymerase ribozyme fitness, log enrichment relative to wild type (log ratio); higher = more active; in vitro selection for triplet polymerase activity
The variants listed here are annotated with their polymerase ribozyme fitness (log ratio).
API doc: respond with a numeric literal and nothing else, no unit.

INSERT INTO measurements (sequence_input, number) VALUES
  ('GACUAAUCUGCCCUCAGAGCUCGAGAACAUCUUCGGAUGCAGAGGAGGUAGGCUUCGGUGGCGCGAUAGCGCCAACGUCCUCAACCUCCAAUGCAUCCCACCACAUGAUGAUGCCUGAAGAGCCUUGGUUUUUUG [C4U C49U]', -0.875),
  ('GACCCAUCUGCCCUCAGAACUCGAGAACAUCUUCGGAUGCAGAGGAGGCAGGCUUCGGUGGCGCGAUAGCGCCAACGUCCUCAACCUCAAAUGCAUCCCACCACAUGAUGAUGCCUGAAGAGCGUUGGUUUUUUG [A5C G19A C89A C124G]', -1.76),
  ('GACCAAUCUGCCCUCAGAGCUCGAGAACAUCUUCGGGUGCAGAGGAGGCAGGCUUCGGUGGCGCGAUAGCGCCAAGGUCCUCAACCUCCAAUGCAUCCCACCACAUGAUGAUACCUGAAGAGCCUUGGUUUUUUG [A37G C76G G113A]', -1.57),
  ('GACCAAUCUGCCCUCAGAGCUCGAGUACAUCUUCGGAUGCAGAGGAGGCAGGCUUCGGUGGCGCGAUAGCGCCAACGUCCUCAACCUCCAAUGUAUCCCACCACAUGAUGAUGCCUGAAGAGCCUUGGUUUUUUG [A26U C94U]', -2.76);

Task: Provide only the value of recorded polymerase ribozyme fitness (log ratio) for GACCACUCUGCCCUCAGAGCUCGAGAACAUCUUCGGAUGCAGAGGAGGCAGGUUUCGGUGGCGCGAUAGCGCCGACGUCUUCAACCUCCAAUGCAUCCCACCACAUGAUGAUGCCUGGAGAGCCUUGGUUUUUUG [A6C C53U A74G C80U A118G]
Result: -1.6

Task: Specify polymerase ribozyme fitness (log ratio) for GACCAAUCUGCCCGCAGAGCUCGAGAACAUCUUCGGAUGCAGAGGAGGCAGGCUUCGGUGGCGCGAUAGCGCCAACGUCCUCAACCUCCAAUGCGUCCCACCACAUGAUGAUGCCUGAAGAGCCUUGGUUUUUUG [U14G A95G] and stop.
Result: -2.23

Task: Name the recorded polymerase ribozyme fitness (log ratio) of the item GACCAAUCUGCCCUCAGAGCUCGAGAACAUCUUCGGAUGCAGGUGUGGCAGGCUUCGGUGGCGCGAUAGCGCCAACGUCCUCAACCUCCAAUGCAUCCCACCACAUGAUGAUGCCUGAAGAGCCUUGGUUUUAUG [A43G G44U A46U U133A] in your answer.
Result: -2.67

Task: Please report polymerase ribozyme fitness (log ratio) for the following variant: GACCAAUCUGCCCUCAGAGCUCGAGAACAUCUUCCGAUGCAGAGGAGGCAGGCUUCGGUGGCGCGAUAGCGCCAACGUCCUCAACCUACAAUGCAUCCCACCACAUGAUGAUGCCUGAAGAGCCUUGGUUUUUUG [G35C C88A]
Result: -5.61

Task: Answer with the recorded polymerase ribozyme fitness (log ratio) for the variant listed here: GACCAAUCUGCCCUCAGAGCUCGAGAACAUCUUCGGAUGCAGAGGAGGCAGGCUUCGGUGGCGUGAUAGCGCCAACGUCCUCAACCUCCAAUGCGUCCCACCACAUGAUGAUGCCUGAAGAGCCUUGGUUUUUUG [C64U A95G]
Result: -1.52
